Numbers sourced from paper PMC6009902.

Molecular target: Human recombinant Casein Kinase 1 delta (CK1δ) (Homo sapiens, UniProt P48730)
Construct: purchased Millipore (Millipore Iberica S.A.U.)
Sequence (P48730 whole entry): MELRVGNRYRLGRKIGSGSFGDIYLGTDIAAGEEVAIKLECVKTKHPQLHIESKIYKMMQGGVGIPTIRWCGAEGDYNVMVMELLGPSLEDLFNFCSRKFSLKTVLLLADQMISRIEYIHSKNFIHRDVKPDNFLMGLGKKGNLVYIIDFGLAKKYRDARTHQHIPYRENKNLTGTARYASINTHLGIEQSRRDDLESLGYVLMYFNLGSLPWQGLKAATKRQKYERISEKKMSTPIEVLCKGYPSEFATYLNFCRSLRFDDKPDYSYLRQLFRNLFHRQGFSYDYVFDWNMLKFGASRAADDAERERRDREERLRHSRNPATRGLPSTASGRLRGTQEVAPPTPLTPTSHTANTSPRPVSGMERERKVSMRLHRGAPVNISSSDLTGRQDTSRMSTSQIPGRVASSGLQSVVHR
Assay: CK-1δ Kinase-Glo assay
Type: biochemical
Settings: human recombinant enzyme; mean of two independent experiments; read-out: IC50 CK1δ (µM ± SD)
Recorded log10 of IC50 values for a group of molecules are listed next.
READOUT_TYPE: log10 of IC50 (log10 of the value in µM)

{"ENTRY_SMILES": "COC(=O)c1ccc(NC(=O)Nc2nc3ccc(Cl)cc3s2)cc1", "log10 of IC50": 0.94}
{"ENTRY_SMILES": "O=C(Nc1ccc(O)c(Cl)c1)Nc1nc2ccc(F)cc2s1", "log10 of IC50": -0.08}
{"ENTRY_SMILES": "COC(=O)c1cc(NC(=O)Nc2nc3ccc(Cl)cc3s2)ccc1O", "log10 of IC50": 1.00}
{"ENTRY_SMILES": "O=C(Nc1ccc(O)c(C(=O)O)c1)Nc1nc2ccc(F)cc2s1", "log10 of IC50": -0.04}
{"ENTRY_SMILES": "O=C(Nc1ccc(O)cc1)Nc1nc2ccc(F)cc2s1", "log10 of IC50": 0.14}
{"ENTRY_SMILES": "COc1ccc(NC(=O)Nc2nc3ccc(F)cc3s2)cc1C(=O)O", "log10 of IC50": 0.53}
{"ENTRY_SMILES": "O=C(Nc1cccc(O)c1)Nc1nc2ccc(F)cc2s1", "log10 of IC50": -0.07}
{"ENTRY_SMILES": "COc1ccc(NC(=O)Nc2nc3ccc(Cl)cc3s2)cc1", "log10 of IC50": 0.95}
{"ENTRY_SMILES": "CC(=O)Nc1ccc(NC(=O)Nc2nc3ccc(Cl)cc3s2)cc1", "log10 of IC50": 0.12}

###

Quick list: SI (Selectivity index = IC50CK1ε/IC50CK1δ) per entry.
Target: Human recombinant Casein Kinase 1 delta (CK1δ) (Homo sapiens)
Construct: purchased Millipore (Millipore Iberica S.A.U.)
Assay: CK-1δ Kinase-Glo assay
Assay type: biochemical
READOUT_TYPE: SI (Selectivity index = IC50CK1ε/IC50CK1δ)

{"ENTRY_SMILES": "COc1ccc(NC(=O)Nc2nc3ccc(Cl)cc3s2)cc1C(=O)O", "VALUE_MODIFIER": "=", "QUANTITATIVE_RESULT": 7.6}
{"ENTRY_SMILES": "O=C(Nc1ccc(O)c(C(=O)O)c1)Nc1nc2ccc(Cl)cc2s1", "VALUE_MODIFIER": "=", "QUANTITATIVE_RESULT": 5.7}
{"ENTRY_SMILES": "O=C(Nc1cccc(O)c1)Nc1nc2ccc(Cl)cc2s1", "VALUE_MODIFIER": "=", "QUANTITATIVE_RESULT": 12.0}
{"ENTRY_SMILES": "COc1ccc(NC(=O)Nc2nc3ccc(Cl)cc3s2)cc1OC", "VALUE_MODIFIER": ">", "QUANTITATIVE_RESULT": 14.5}
{"ENTRY_SMILES": "O=C(Nc1ccc(C(=O)O)cc1)Nc1nc2ccc(Cl)cc2s1", "VALUE_MODIFIER": "=", "QUANTITATIVE_RESULT": 12.3}
{"ENTRY_SMILES": "O=C(Nc1nc2ccc(F)cc2s1)Nc1ccccc1O", "VALUE_MODIFIER": "=", "QUANTITATIVE_RESULT": 8.1}
{"ENTRY_SMILES": "O=C(Nc1ccc(O)c(Cl)c1)Nc1nc2ccc(Cl)cc2s1", "VALUE_MODIFIER": "=", "QUANTITATIVE_RESULT": 4.1}
{"ENTRY_SMILES": "O=C(Nc1cccc(O)c1)Nc1nc2ccc(F)cc2s1", "VALUE_MODIFIER": "=", "QUANTITATIVE_RESULT": 4.7}
{"ENTRY_SMILES": "O=C(Nc1ccc(O)c(C(=O)O)c1)Nc1nc2ccc(F)cc2s1", "VALUE_MODIFIER": "=", "QUANTITATIVE_RESULT": 9.2}
